Entries annotated with measured fluorescence, percent of control (lower = inhibition)
biological target: Cell division control protein 42 homolog (Homo sapiens) (UniProt P60953); experiment: inhibition of fluorescent GTP binding to wildtype Cdc42 – biochemical, multiplex bead flow cytometry, Bodipy-FL-GTP, dose response (AID 1334); details: bead-based flow cytometry, Bodipy-FL-GTP binding to GST-Cdc42; at 100 µM (top of the series) unless noted
Sequence (P60953 whole entry, looked up): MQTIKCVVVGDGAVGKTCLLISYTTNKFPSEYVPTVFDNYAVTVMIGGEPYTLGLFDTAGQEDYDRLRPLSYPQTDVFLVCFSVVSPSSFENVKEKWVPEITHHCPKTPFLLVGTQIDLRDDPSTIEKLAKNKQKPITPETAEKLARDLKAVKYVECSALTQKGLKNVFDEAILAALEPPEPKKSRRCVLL
Results with a measured potency or affinity are listed apart.

Guide cases for fluorescence, percent of control (lower = inhibition), answers given:
                                   molecule  value
0  Nc1c(S(=O)(=O)c2ccccc2)c2nc3ccccc3nc2n1/N=C/c1cccc(O)c1  91.2%
1  COc1ccc(/C=C2/N=C(SCC(=O)Nc3cc(C)on3)N(c3ccccc3)C2=O)cc1  41.3%
2              COc1ccc(CNc2ccccc2C(=O)O)cc1  75.9%
3  COc1ccc2[nH]c3nc(SCC(=O)Nc4ccc5c(c4)OCO5)nnc3c2c1  70.4%
4   O=C(O)c1cccc(Oc2ccc([N+](=O)[O-])cc2)c1  62.7%
5            O=C(O)c1cccnc1Oc1ccc2c(c1)OCO2  76.8%
6  CC(=O)Nc1ccc(N2C(=O)c3ccc(C(=O)Nc4nnc(SCc5ccc(F)cc5)s4)cc3C2=O)cc1  43.1%
7  Cc1ccc([N+](=O)[O-])cc1-c1ccc(/C=C(\C#N)c2[nH]nc(N)c2C#N)o1  32.4%

Now look at this entry.
Please report the recorded fluorescence, percent of control (lower = inhibition) for "O=C(O)c1c(C(F)(F)F)ccnc1NCc1ccccc1" . 61.8%

----------
assay: reduced mouse 2C T cell binding to pMHC/ICAM-1 vesicles – MLPCN validation set, flow cytometry, LFA-1/ICAM-1 modulator project, pilot screen (AID 2523); conditions: 2C mouse CD8+ T cells, at 7 µM, stronger effect = lower value; measured here: CD8+/vesicle+ event percentage
Rule: double positive events below 60% gives label 1, anything at or above gives label 0.

The following molecules have reported results that may help.
>>> print(df.to_string())
                                  molecule  class_label
0  C=C(C)Cn1c(NCCOC)nc2c1c(=O)[nH]c(=O)n2C      label 0
1            Cc1nc(N)sc1C(=O)N/N=C/c1ccco1      label 0
2               CC(C)c1ccc(/C=C/C(=O)O)cc1      label 1

Given "CCOCC(=O)Nc1ccccc1C(=O)N1CCOCC1" , is recorded double positive events strictly lower than 60%? label 0

Criterion: double positive events strictly below 60%. Is it met by c1ccc2c(c1)CCOC2CNCCCN1CCCCC1 (configuration not stated) ? label 1

# strict comparison: is reported double positive events < 60%? input = "CCOc1cc2c3c(c1)C(C)=CC(C)(C)N3C(=O)C2=O" label 1

Consider the molecule COCC1CCCN(Cc2cn[nH]c2-c2cc3ccccc3o2)C1 (configuration not stated) . Is its double positive events strictly less than 60%? label 0

Report whether reported double positive events is lower than 60% (strictly) for "N#C/C(=C/c1ccccc1)C(=O)NCc1ccccc1" label 1

Bench note: check whether "Nc1cc(-c2ccncc2)c[nH]c1=O" shows double positive events below 60% label 0

----------
biological target: AP-2 complex subunit beta (Homo sapiens) (UniProt P63010); test: beta-arrestin/AP2 interaction blockers – biochemical, validation set, GST-AP2 beads, flow cytometry, pilot screen (AID 504541); conditions: FITC arrestin peptide, at 10 µM, stronger effect = higher value, AP2 beta2 appendage fragment, R879A mutant;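 also: AP2 carries R879A mutation and is captured from E. coli lysate; bead-bound FITC arrestin peptide fluorescence measuring arrestin peptide binding to AP2; 0% = DMSO wells and 100% = excess unlabeled arrestin peptide control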
Sequence (P63010 whole entry, looked up, the tested form may be a part, one chain of several): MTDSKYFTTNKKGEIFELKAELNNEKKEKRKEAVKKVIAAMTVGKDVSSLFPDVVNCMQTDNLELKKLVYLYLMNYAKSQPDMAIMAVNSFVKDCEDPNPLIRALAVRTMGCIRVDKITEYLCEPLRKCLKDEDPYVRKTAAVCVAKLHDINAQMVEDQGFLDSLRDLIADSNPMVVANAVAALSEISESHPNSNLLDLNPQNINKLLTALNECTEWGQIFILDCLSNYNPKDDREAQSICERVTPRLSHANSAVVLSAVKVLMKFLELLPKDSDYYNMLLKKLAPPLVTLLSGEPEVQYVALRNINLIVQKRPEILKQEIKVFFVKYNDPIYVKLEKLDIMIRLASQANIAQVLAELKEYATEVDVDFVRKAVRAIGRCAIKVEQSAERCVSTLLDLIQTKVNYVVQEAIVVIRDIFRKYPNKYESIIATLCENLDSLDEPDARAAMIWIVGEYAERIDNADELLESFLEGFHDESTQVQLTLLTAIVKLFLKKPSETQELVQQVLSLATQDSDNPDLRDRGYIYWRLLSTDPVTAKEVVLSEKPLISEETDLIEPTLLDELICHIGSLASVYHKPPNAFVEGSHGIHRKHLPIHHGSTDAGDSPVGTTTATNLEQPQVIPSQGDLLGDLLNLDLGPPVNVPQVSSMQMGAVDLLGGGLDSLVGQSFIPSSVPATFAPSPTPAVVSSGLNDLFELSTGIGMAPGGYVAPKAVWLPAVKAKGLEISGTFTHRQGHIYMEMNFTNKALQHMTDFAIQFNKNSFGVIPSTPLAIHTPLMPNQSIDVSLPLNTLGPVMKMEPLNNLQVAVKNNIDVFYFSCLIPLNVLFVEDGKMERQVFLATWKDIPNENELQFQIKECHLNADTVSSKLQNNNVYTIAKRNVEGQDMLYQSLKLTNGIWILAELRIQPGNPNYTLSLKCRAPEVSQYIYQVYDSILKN
outcome measure: inhibition (%)
Use % as the unit, but write only the number.

record smiles	inhibition [%]
C=C(C)C(=O)Nc1ccc(NC(C)C)cc1	19.3

What measured inhibition is associated with "Cc1ccsc1/C=C/C1=NCCCN1C" on AP-2 complex subunit beta (Homo sapiens) (UniProt P63010)? -5.94

What measured inhibition is associated with "CN(C)CC/C=C1\c2ccccc2Sc2ccc(Cl)cc21" on AP-2 complex subunit beta (Homo sapiens) (UniProt P63010)? 54.9

Give inhibition (AP-2 complex subunit beta (Homo sapiens) (UniProt P63010)) of the following compound: "Cn1c(=O)c(C(=O)NCCO)c(O)c2ccccc21" 6.89
